tested target: Epidermal growth factor receptor (Homo sapiens, UniProt P00533)
Sequence (P00533 whole entry): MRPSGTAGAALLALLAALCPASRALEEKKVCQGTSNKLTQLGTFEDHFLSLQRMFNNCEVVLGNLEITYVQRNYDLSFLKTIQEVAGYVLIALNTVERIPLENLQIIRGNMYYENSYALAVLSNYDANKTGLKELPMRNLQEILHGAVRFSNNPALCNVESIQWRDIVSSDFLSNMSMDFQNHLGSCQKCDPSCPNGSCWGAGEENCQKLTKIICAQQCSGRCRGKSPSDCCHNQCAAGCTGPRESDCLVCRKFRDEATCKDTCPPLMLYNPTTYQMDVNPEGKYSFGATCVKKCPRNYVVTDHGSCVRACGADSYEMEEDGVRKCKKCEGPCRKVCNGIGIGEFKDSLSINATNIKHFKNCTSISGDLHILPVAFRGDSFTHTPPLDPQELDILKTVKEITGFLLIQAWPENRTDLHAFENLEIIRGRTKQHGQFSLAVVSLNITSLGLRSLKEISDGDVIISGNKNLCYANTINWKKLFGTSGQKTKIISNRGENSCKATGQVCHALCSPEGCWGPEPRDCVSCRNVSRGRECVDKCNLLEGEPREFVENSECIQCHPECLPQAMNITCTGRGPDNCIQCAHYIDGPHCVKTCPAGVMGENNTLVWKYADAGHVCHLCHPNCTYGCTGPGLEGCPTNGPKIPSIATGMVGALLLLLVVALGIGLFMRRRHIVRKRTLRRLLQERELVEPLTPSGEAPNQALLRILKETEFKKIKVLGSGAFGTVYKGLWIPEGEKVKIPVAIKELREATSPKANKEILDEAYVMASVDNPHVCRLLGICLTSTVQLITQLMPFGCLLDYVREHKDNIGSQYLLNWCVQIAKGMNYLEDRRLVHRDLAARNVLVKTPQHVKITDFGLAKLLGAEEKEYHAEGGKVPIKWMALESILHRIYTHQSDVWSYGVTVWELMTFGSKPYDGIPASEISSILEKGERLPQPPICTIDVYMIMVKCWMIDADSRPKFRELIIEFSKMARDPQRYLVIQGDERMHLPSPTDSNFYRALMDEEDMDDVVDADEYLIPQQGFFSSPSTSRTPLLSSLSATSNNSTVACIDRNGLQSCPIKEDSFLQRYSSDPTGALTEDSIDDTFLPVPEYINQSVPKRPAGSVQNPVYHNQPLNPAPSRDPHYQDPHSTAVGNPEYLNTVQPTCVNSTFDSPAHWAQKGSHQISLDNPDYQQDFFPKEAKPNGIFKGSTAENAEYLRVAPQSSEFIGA

{"smiles": "O=C(Nc1ccc(Oc2ccnc3[nH]ccc23)cc1)c1nn(-c2ccc(Cl)c(C(F)(F)F)c2)ccc1=O", "IC50": "> 10 µM"}
